The values you see were collected from paper PMC10866396.

# TEST_TARGET: Avi-tagged-eIF4E (human, UniProt P06730 1-217, biotin (co-transfected bacterial biotin ligase BirA; loaded on streptavidin tips))
# Sequence (P06730 whole entry): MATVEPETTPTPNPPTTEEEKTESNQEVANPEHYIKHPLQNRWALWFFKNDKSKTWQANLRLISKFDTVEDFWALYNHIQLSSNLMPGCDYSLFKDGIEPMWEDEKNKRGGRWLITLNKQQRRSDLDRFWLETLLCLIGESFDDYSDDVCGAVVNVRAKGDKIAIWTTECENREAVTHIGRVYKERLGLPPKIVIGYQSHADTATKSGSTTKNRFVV
# ASSAY_OVERVIEW: BLI
MEASURED_PROPERTY: pKd
The scale used: pKd is minus the common logarithm of the concentration in molar units.

Quote pKd reported for YPYAASPA [Pep8 peptide] please.
4.60
